Molecular target: T1, hu-M-IL1RAP construct, positions S21-T367 (extracellular domain of the membrane form of human IL1RAP) (human, UniProt Q9NPH3 21-367)
T1 construct: Biotinylated when captured on the Biacore chip
T1 sequence: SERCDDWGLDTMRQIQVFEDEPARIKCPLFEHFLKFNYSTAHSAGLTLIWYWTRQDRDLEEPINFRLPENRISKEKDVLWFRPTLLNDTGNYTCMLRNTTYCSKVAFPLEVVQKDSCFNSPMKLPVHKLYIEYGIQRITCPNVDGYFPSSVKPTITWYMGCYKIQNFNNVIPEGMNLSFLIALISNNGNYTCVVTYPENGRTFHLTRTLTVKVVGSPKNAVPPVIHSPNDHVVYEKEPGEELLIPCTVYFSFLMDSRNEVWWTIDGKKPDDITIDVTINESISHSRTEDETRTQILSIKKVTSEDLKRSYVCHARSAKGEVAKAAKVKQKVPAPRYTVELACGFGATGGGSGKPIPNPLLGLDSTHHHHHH
Experiment: BLI (OCTET), mAb captured, 25 C
Experimental endpoint: Kd (nM)
Numbers only here, please. The scale is nM.

Consider the reported Kd for these binders:
**Q:** Tell me the measured Kd of m11C5_C59S (antibody, mouse IgG2a, V domains shown, Murine IgG2a constant domains) VH: EVQLVESGGGLVKPGGSLKLSCAASGFTFSNYAMSWVRQTPEKRLEWVATVTEGGDYNYSLDDVKGRFTISRDNANDNLYLQMSHLKSEDSARYYCARDRWPYFFDYWGQGTTLTVSS VL: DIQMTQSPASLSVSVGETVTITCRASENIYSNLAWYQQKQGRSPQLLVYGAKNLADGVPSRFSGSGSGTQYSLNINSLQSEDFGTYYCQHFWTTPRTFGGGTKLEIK , please.
**A:** 0.598

**Q:** Tell me the measured Kd of h11C5_C59A (antibody, human IgG1, V domains shown, Human IgG1/kappa constant domains) VH: EVQLVESGGGLVQPGGSLRLSCAASGFTFSNYAMSWVRQAPGKGLEWVATVTEGGDYNYALDDVKGRFTISRDNAKNSLYLQMNSLRAEDTAVYYCARDRWPYFFDYWGQGTLVTVSS VL: DIQMTQSPSSLSASVGDRVTITCRASENIYSNLAWYQQKPGKAPKLLVYGAKNLADGVPSRFSGSGSGTDYTLTISSLQPEDFATYYCQHFWTTPRTFGGGTKVEIK , please.
**A:** 2.06

Now let's try a different one.
**Q:** Tell me the measured Kd of c11C5_C59Y (C59Y variant of c11C5) (antibody, IgG1, V domains shown, Murine VL and VH, human CL and IgG1 CH1-CH3 domains with effectorless N297G) VH: EVQLVESGGGLVKPGGSLKLSCAASGFTFSNYAMSWVRQTPEKRLEWVATVTEGGDYNYYLDDVKGRFTISRDNANDNLYLQMSHLKSEDSARYYCARDRWPYFFDYWGQGTTLTVSS VL: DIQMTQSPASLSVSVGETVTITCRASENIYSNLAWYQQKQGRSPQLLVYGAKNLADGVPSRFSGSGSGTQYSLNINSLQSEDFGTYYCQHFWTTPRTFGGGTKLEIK , please.
**A:** 0.446

The measured values listed here are drawn from patent US20260015426A1.
